- assay.remarks: Cytotoxicity against human HuH7-J20 cells expressing secreted alkaline phosphatase reporter gene assessed as cell viability preincubated for 1 hr followed by fresh drug administration every 24 hrs at 1/10th of initial concentration for 48 hrs by WST-1 assay
- Assay type: cell-based, Huh-7
readout.type: CC50 at 48 h (µM)
Express your answer in µM, writing the number without its unit.

These solved cases illustrate the format of a correct answer.
substance.smiles	reading.unit	result
Cl.N=C(NC(=O)N1CCN(c2cc(Cl)cc(Cl)c2)CC1)Nc1ccc(Cl)cc1	µM	34.2
CC(C)(C)OC(=O)NC(=N)NC(=O)NCc1ccccc1	µM	49.3
Cl.N=C(NC(=O)N1CCN(c2ccccc2)CC1)Nc1ccc(Cl)cc1	µM	39.7
Cl.N=C(N)NC(=O)NCc1ccccc1	µM	325
Cl.N=C(NC(=O)N1CCN(c2ccc(C34CC5CC(CC(C5)C3)C4)cc2)CC1)Nc1ccc(Cl)cc1	µM	77
NC(=O)c1ncn([C@@H]2O[C@H](CO)[C@@H](O)[C@H]2O)n1	µM	30.5
Cl.N=C(NCc1ccccc1)NC(=O)N1CCN(c2ccc(Cl)cc2)CC1	µM	34.7

Exercise: Identify measured CC50 at 48 h corresponding to Cc1ccc(N2CCN(C(=O)NC(=N)Nc3ccccc3)CC2)cc1.Cl
Solution: 21
